Assay: In vivo bioconcentration test OECD TG 305, carp
Set-up: species or system Cyprinus carpio
Conditions: common carp (Cyprinus carpio), in vivo, Cf data, concentration measured in individual fish

{"compound": "c1ccc2c(c1)cc1ccc3cccc4ccc2c1c34 [BaP, benzo[a]pyrene]", "u": "ng/g", "concentration at 14 d": 0.168}

====

Experiment: In vivo bioconcentration test OECD TG 305, carp
Design: species or system Cyprinus carpio
Conditions: common carp (Cyprinus carpio), in vivo, common carp, day 35 (end of uptake); read-out: Mean Cf

{"compound": "COc1ccc(C(c2ccc(OC)cc2)C(Cl)(Cl)Cl)cc1", "concentration at 35 d / ng/g": 7.59}
{"compound": "c1ccc2c(c1)cc1ccc3cccc4ccc2c1c34 [BaP, benzo[a]pyrene]", "concentration at 35 d / ng/g": 0.153}

====

Experiment: In vivo bioconcentration test OECD TG 305, carp
Parameters: species or system Cyprinus carpio
Conditions: common carp (Cyprinus carpio), in vivo, Cf data, concentration measured in individual fish

{"molecule": "c1ccc2c(c1)cc1ccc3cccc4ccc2c1c34 [BaP, benzo[a]pyrene]", "concentration at 35 d / ng/g": 0.149}

====

Assay: In vivo bioconcentration test OECD TG 305, trout
Set-up: species or system Oncorhynchus mykiss
Conditions: rainbow trout (Oncorhynchus mykiss), in vivo, Cf data, concentration measured in individual fish
Experimental: In vivo BCF values for MXC and BaP in carp and trout were determined in bioconcentration tests with both species in accordance to OECD TG 305 ([OECD, 2012]). […] The total lipid content of the fish was measured individually by gravimetric analysis according to [Smedes (1999)]. […] MXC in the organic phase of samples from the in vitro incubations and in DCM extracts of water samples from the in vivo bioconcentration tests were analyzed by gas chromatography-mass spectrometry (GC-MS). […]
assay.metric: concentration at 21 d (ng/g)

{"compound": "c1ccc2c(c1)cc1ccc3cccc4ccc2c1c34 [BaP, benzo[a]pyrene]", "u": "ng/g", "measured.result": 0.111}

====

Test: In vivo bioconcentration test OECD TG 305, trout
Design: species or system Oncorhynchus mykiss
Conditions: rainbow trout (Oncorhynchus mykiss), in vivo, rainbow trout, day 40 (depuration); read-out: Mean Cf
Entries and their measured concentration at 40 d follow.
assay.metric: concentration at 40 d (ng/g)

{"compound": "c1ccc2c(c1)cc1ccc3cccc4ccc2c1c34 [BaP, benzo[a]pyrene]", "measured.result": 0.011}
{"compound": "COc1ccc(C(c2ccc(OC)cc2)C(Cl)(Cl)Cl)cc1 [MXC, methoxychlor]", "measured.result": 13.8}

====

Experiment: In vivo bioconcentration test OECD TG 305, trout
Set-up: species or system Oncorhynchus mykiss
Settings: rainbow trout (Oncorhynchus mykiss), in vivo, Cf data, concentration measured in individual fish

{"compound": "c1ccc2c(c1)cc1ccc3cccc4ccc2c1c34 [BaP, benzo[a]pyrene]", "concentration at 35 d [ng/g]": 0.084}

====

Experiment: In vivo bioconcentration test OECD TG 305, trout
Set-up: species or system Oncorhynchus mykiss
Settings: rainbow trout (Oncorhynchus mykiss), in vivo, rainbow trout, day 14 (uptake); BaP background corrected; read-out: Cf data, concentration measured in individual fish

{"entry.smiles": "COc1ccc(C(c2ccc(OC)cc2)C(Cl)(Cl)Cl)cc1", "concentration at 14 d": "27.1 ng/g"}

====

Assay: In vivo bioconcentration test OECD TG 305, carp
Design: species or system Cyprinus carpio
Details: common carp (Cyprinus carpio), in vivo, common carp, day 7 (uptake); BaP background corrected; read-out: Cf data, concentration measured in individual fish

{"compound": "COc1ccc(C(c2ccc(OC)cc2)C(Cl)(Cl)Cl)cc1 [MXC, methoxychlor]", "concentration at 7 d [ng/g]": 12.8}

====

Experiment: In vivo bioconcentration test OECD TG 305, carp
Parameters: species or system Cyprinus carpio
Conditions: common carp (Cyprinus carpio), in vivo, common carp, day 21 (uptake); BaP background corrected; read-out: Cf data, concentration measured in individual fish

{"entry.smiles": "COc1ccc(C(c2ccc(OC)cc2)C(Cl)(Cl)Cl)cc1", "concentration at 21 d": "9.16 ng/g"}

====

Test: In vivo bioconcentration test OECD TG 305, trout
Design: species or system Oncorhynchus mykiss
Conditions: rainbow trout (Oncorhynchus mykiss), whole fish, other: exposure via water in a flow-through system, rainbow trout, day 21 (uptake); BaP background corrected; read-out: Cf data, concentration measured in individual fish

{"compound": "c1ccc2c(c1)cc1ccc3cccc4ccc2c1c34 [BaP, benzo[a]pyrene]", "concentration at 21 d": "0.107 ng/g"}

====

Assay: In vivo bioconcentration test OECD TG 305, trout
Set-up: species or system Oncorhynchus mykiss
Conditions: rainbow trout (Oncorhynchus mykiss), in vivo, Cf data, concentration measured in individual fish
assay.metric: concentration at 28 d (ng/g)

{"compound": "c1ccc2c(c1)cc1ccc3cccc4ccc2c1c34 [BaP, benzo[a]pyrene]", "assay.metric": "concentration at 28 d", "measured.result": 0.126}

====

Entries and their measured concentration at 14 d follow.
Assay: In vivo bioconcentration test OECD TG 305, trout
Design: species or system Oncorhynchus mykiss
Details: rainbow trout (Oncorhynchus mykiss), in vivo, rainbow trout, day 14 (uptake); read-out: Mean Cf

{"compound": "c1ccc2c(c1)cc1ccc3cccc4ccc2c1c34 [BaP, benzo[a]pyrene]", "concentration at 14 d (ng/g)": 0.07}
{"compound": "COc1ccc(C(c2ccc(OC)cc2)C(Cl)(Cl)Cl)cc1 [MXC, methoxychlor]", "concentration at 14 d (ng/g)": 21.1}
